- Target System: AtzT (Pseudomonas sp. (strain ADP), UniProt Q936X6)
- Sequence (Q936X6 27-360 limits assumed): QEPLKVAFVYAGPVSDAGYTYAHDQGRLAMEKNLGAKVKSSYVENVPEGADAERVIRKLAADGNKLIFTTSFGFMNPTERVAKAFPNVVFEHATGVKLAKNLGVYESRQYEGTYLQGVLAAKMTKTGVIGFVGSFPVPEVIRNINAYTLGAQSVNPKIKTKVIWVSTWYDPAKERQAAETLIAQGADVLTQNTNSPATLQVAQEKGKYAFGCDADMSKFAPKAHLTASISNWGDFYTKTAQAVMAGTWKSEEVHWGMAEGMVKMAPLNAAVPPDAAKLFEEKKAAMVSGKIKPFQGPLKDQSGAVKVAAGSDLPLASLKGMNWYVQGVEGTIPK
- Run Description: Surface plasmon resonance (SPR) binding to immobilized AtzT, 1:1 steady-state affinity model
- Assay Conditions: Biacore S200, CM5 chip, 293 K, HBS-P+ buffer with 2%(v/v) DMSO, mean ± standard deviation (n = 3)
Readout Label: pKd
One number for each entry, as −log10 of the molar value.

{"columns": ["Compound", "pKd"],
 "data": [
  ["Nc1cc[nH]c(=O)n1", 3.10]
]}

Dear reader, for each entry below, please note its pKd.
1. Nc1nc(N)nc(O)n1
2. O=c1[nH]c(=O)[nH]c(=O)[nH]1
3. OB(O)c1ccc(I)cc1
4. O=c1cc[nH]c(=O)[nH]1
5. CCNc1nc(Cl)nc(NC(C)C)n1
6. CCNc1nc(O)nc(NC(C)C)n1 [2-Hydroxyatrazine]
7. Nc1nc2nc[nH]c2c(=O)[nH]1

6.44
3.47
2.30
2.80
2.82
5.66
6.96

Could you tell me pKd for each of these compounds? They are listed below.
1. Cc1c[nH]c(=O)[nH]c1=O
2. Nc1ncnc2nc[nH]c12

1. 3.21
2. 5.60

----------
- Target System: AtzT (Pseudomonas sp. (strain ADP))
- Run Description: Surface plasmon resonance (SPR) binding to immobilized AtzT, 1:1 steady-state affinity model
Hi there, I'd appreciate the recorded Kd for every entry that follows.

Below, each entry is followed by its recorded Kd result.
{"columns": ["Compound String", "Reported Measurement"],
 "data": [
  ["Nc1nc2nc[nH]c2c(=O)[nH]1", "~0.11 µM"],
  ["CCNc1nc(Cl)nc(NC(C)C)n1", "~1500 µM"]
]}

Attention now turns to another entry.
Query (compound): Nc1ncnc2nc[nH]c12 ; field requested: Kd ~2.5 µM

----------
- Target System: AtzT (Pseudomonas sp. (strain ADP), UniProt Q936X6)
- Run Description: Surface plasmon resonance (SPR) binding to immobilized AtzT, 1:1 steady-state affinity model
- Assay Conditions: Biacore S200, CM5 chip, 293 K, HBS-P+ buffer with 2%(v/v) DMSO, mean ± standard deviation (n = 3)
pKd: −log10 of the molar value.
Record form. Attribute: pKd. Fill in for each entry.

Below are 4 molecules. Give each one its pKd.
1. CCC1(CC)C(=O)NC(=O)NC1=O [Barbitone]
2. O=C(O)c1c(Br)c(Br)c(C(=O)O)c(Br)c1Br [Tetrabromoterephthalic acid]
3. Nc1nc(N)nc(N)n1 [Melamine]
4. Nc1nc2c(ncn2[C@@H]2O[C@H](COP(=O)(O)OP(=O)(O)OP(=O)(O)O)[C@@H](O)[C@H]2O)c(=O)[nH]1 [GTP]

1: < 2.10; 2: < 2.10; 3: < 3.40; 4: < 2.10

Name the reported pKd value associated with the molecule O=C1CC(=O)NC(=O)N1 [Barbaturic acid] < 2.10
